Taken from ChEMBL document CHEMBL2385069.

Test system: Bacillus subtilis
assay details: Antibacterial activity against Bacillus subtilis ATCC 6633 assessed as diameter of inhibition zone at 1 mg/ml after 24 hrs by agar well diffusion method
Assay type: functional
condition description: ATCC 6633, 24 h, read-out: DIZ
quantity: zone of inhibition at 1000 µg/mL (mm)
Field: numeric (mm). Do not append units.

>>> observed_measurement("O=C(O)CNC(=O)c1ccc(NC(=S)Nc2ccc(S(=O)(=O)Nc3nccs3)cc2)cc1")
15
>>> observed_measurement("O=C(O)CNC(=O)c1ccc(NC(=S)NNS(=O)(=O)c2ccccc2)cc1")
30
>>> observed_measurement("Cc1c(NC(=S)Nc2ccc(C(=O)NCC(=O)O)cc2)c(=O)n(-c2ccccc2)n1C")
15
>>> observed_measurement("O=C(O)CNC(=O)c1ccc(NC(=S)Nc2ccc(F)cc2)cc1")
0
>>> observed_measurement("O=C(O)CNC(=O)c1ccc(NC(=S)Nc2ccc(S(=O)(=O)Nc3ncccn3)cc2)cc1")
26

QUERY: Fill in the recorded zone of inhibition at 1000 µg/mL for this compound, with Bacillus subtilis as test system: "O=C(O)CNC(=O)c1ccc(NC(=S)NNC(=O)c2ccncc2)cc1"
RESULT: 0

QUERY: Fill in the recorded zone of inhibition at 1000 µg/mL for this compound, with Bacillus subtilis as test system: "NS(=O)(=O)c1ccc(NC(=S)Nc2ccc(C(=O)NCC(=O)O)cc2)cc1"
RESULT: 18

QUERY: Fill in the recorded zone of inhibition at 1000 µg/mL for this compound, with Bacillus subtilis as test system: "CC(=O)NS(=O)(=O)c1ccc(NC(=S)Nc2ccc(C(=O)NCC(=O)O)cc2)cc1"
RESULT: 18

QUERY: Fill in the recorded zone of inhibition at 1000 µg/mL for this compound, with Bacillus subtilis as test system: "CCOc1ccc(NC(=O)c2ccccc2NC(=S)Nc2ccc(C(=O)NCC(=O)O)cc2)cc1"
RESULT: 0

QUERY: Fill in the recorded zone of inhibition at 1000 µg/mL for this compound, with Bacillus subtilis as test system: "Nc1n[nH]c(NC(=S)Nc2ccc(C(=O)NCC(=O)O)cc2)c1/N=N/c1ccc(Cl)cc1"
RESULT: 32
